Sourced from patent US8153615B2

The reader will find reported pIC50 values listed item by item below.
System: BT549 cells
Assay: Antiproliferative evaluation, CyQuant assay, BT549
Assay type: cell-based, human
Conditions: exponentially growing cells, 48 h incubation, read-out: IC50, growth inhibition, BT549, breast
Just so you know, pIC50 here is -log10 of the concentration in molar units; reply with that number alone.

For orientation, consider the following solved cases.
CCCCCCCCCCCCCCCCOC[C@@H](CCP(=O)([O-])OCC[N+](C)(C)C)OC(=O)NC: 5.36
CCCCCCCCCCCCCCCCOC[C@H](CCP(=O)([O-])OCC[N+](C)(C)C)OC(=O)NC: 5.17

Read the next record carefully.
**Q:** Please report the measured pIC50 for CCCCCCCCCCCCCCCCOC[C@@H](COP(=O)([O-])OCC[N+](C)(C)C)NC(=O)OC
**A:** 4.87
